TESTED TARGET: D(3) dopamine receptor (Homo sapiens) (UniProt P35462)
Sequence (P35462 whole entry, looked up): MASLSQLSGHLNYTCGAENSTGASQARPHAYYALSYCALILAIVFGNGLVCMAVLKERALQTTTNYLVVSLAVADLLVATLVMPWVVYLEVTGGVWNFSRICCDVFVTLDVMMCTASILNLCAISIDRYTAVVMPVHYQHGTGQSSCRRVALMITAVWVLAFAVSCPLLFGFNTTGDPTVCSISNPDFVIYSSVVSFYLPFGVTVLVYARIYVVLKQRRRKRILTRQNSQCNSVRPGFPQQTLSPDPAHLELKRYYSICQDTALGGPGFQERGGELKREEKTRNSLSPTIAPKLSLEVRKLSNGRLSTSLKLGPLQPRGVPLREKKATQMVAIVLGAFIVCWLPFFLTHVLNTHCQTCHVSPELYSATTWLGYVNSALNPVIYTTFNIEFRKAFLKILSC
METHOD: qHTS of D3 Dopamine Receptor Agonist: qHTS; further: 0% is about no effect
ASSAY SETUP: D3R DiscoveRx beta-arrestin cells, luminescence, 90 min; active compounds read high
Hit rate of the full screen: of about 410,000 compounds, about 2,400 (0.59%) were called active. Shown is part of a subset that was picked to be rich in actives.
EXPERIMENTAL READOUT: max activation (%)
State just the number; it will be interpreted in %.

For the compound CSc1ccc(CCNC(=O)C2CCN(c3nnc(-n4cccc4)s3)CC2)cc1 , the measured max activation on D(3) dopamine receptor (Homo sapiens) (UniProt P35462) was -2.44

Item: Cc1ccc(CCNC(=O)C2CCN(c3nnc(-n4cccc4CNc4ccc(C)cc4)s3)CC2)cc1 | System: D(3) dopamine receptor (Homo sapiens) (UniProt P35462) | max activation: 56.2

max activation value, target or system D(3) dopamine receptor (Homo sapiens) (UniProt P35462), for COc1ccccc1-n1c(-c2ccc(C)cc2)cn2c3c(=O)n(C)c(=O)n(C)c3nc12 : -0.938

The compound CCN(CCCNC(=O)c1c(C)oc2ncn(CC(C)C)c(=O)c12)Cc1ccccc1 on D(3) dopamine receptor (Homo sapiens) (UniProt P35462): max activation was -16.4

With D(3) dopamine receptor (Homo sapiens) (UniProt P35462) as the test system, Cc1ccc2nc(CN3CCN(S(=O)(=O)c4ccc(C)c(C)c4)CC3)oc2c1 showed max activation of -11.8

---

TESTED TARGET: D(3) dopamine receptor (Homo sapiens) (UniProt P35462)
METHOD: qHTS of D3 Dopamine Receptor Agonist: qHTS; further: 0% is about no effect
ASSAY SETUP: D3R DiscoveRx beta-arrestin cells, luminescence, 90 min; active compounds read high
The whole screen tested about 410,000 compounds, of which about 2,400 (0.59%) were called active. For the sample, actives were picked, then their nearest neighbours and some compounds at random.
Assignment: determine reported max activation for the given compounds.
All answers are understood in %, so give the number only.

Memo: CC(=O)NC(=O)c1ccccc1O , reported max activation: -11.8

Measured max activation of Cc1ccc(CN2CCC(CNC(=O)c3cnn(-c4ccccc4Cl)c3C3CCN(C(=O)OC(C)(C)C)CC3)CC2)cc1 : -13.6

// sample CCc1ccc(CNCc2c(C(=O)O)n(Cc3ccc(F)cc3Cl)c3cc(OC)ccc23)cc1 , its max activation was -22.5

max activation reading for O=c1c(=O)n(Cc2c(F)cccc2Cl)ccn1Cc1ccccc1 : -9.07

For reference, reported max activation for Cc1ccc(C)c(N2C(=O)N(Cc3c(F)cccc3Cl)c3ccccc3S2(=O)=O)c1 stands at 64.6

Query CCc1cccc(NC(=O)CN(C)S(=O)(=O)c2ccc3[nH]c4c(c3c2)CCCC4)c1 yields max activation of -8.32

For this compound ( O=C1CC(c2nnc(Cc3ccc(Cl)cc3)o2)CN1c1ccccc1 (stereo unspecified) ), measured max activation is 10.5

Field max activation (entry CCOc1ccc(/C=C/C(=O)OCC(=O)c2ccccc2OC)cc1OC ) reads 3.52

Entry O=C(OCc1ccccc1)c1ccc(O)cc1 — recorded max activation = 3.77

Value of max activation reported for the compound COC(=O)c1c(NC(=O)c2cc(=O)c3c(C)cc(C)cc3o2)sc2c1CCCC2 is 4.95

Value of measured max activation for the entry CCCCSc1ncnc2c1sc1nc(N3CCOCC3)c3c(c12)CCCC3 : -9.06

---

TESTED TARGET: D(3) dopamine receptor (Homo sapiens) (UniProt P35462)
METHOD: qHTS of D3 Dopamine Receptor Agonist: qHTS; further: 0% is about no effect
ASSAY SETUP: D3R DiscoveRx beta-arrestin cells, luminescence, 90 min
The campaign covered roughly 410,000 compounds. About 2,400 (0.59%) were called active. Rule as the data show it: active = max activation above about 30%; inactive = the rest. The full list was thinned out, with actives kept by preference.
Form entry, call: pick from active, inactive

Answer briefly: the call reported for O=C(Cn1c(-c2cccs2)cc2ccccc21)NCCc1ccc(Cl)cc1 in this assay.
inactive

Field: outcome | Entry: CCC1(C)CC(=O)NC1=O (stereo unspecified)
inactive

Outcome logged for COc1ccc(C(=O)NC(=S)Nc2ccccc2N2CCN(S(C)(=O)=O)CC2)cc1OC in this assay:
active

What classification did CC(C)(C)OC(=O)N1CCN(C(=O)c2[nH]c(C(F)(F)F)nc2-c2ccccc2)CC1 end up with in this test?
inactive

Please share the test call associated with CC(C)CCNC(=O)c1[nH]c(C(F)(F)F)nc1-c1ccccc1 .
active

What was the test verdict on NC(=O)c1ccsc1NC(=O)COC(=O)Cc1n[nH]c(=O)c2ccccc12 ?
inactive

---

TESTED TARGET: D(3) dopamine receptor (Homo sapiens)
METHOD: qHTS of D3 Dopamine Receptor Agonist: qHTS; further: 0% is about no effect
ASSAY SETUP: D3R DiscoveRx beta-arrestin cells, luminescence, 90 min
The whole screen tested about 410,000 compounds, of which about 2,400 (0.59%) were called active. Rule as the data show it: active = max activation above about 30%; inactive = the rest. The entries come from a sample that favours actives as a whole.
Your answer must be one of the following: YES (active), NO (inactive)

# fetch the recorded call for CCCn1nc(C(=O)OCc2nc(N)nc(Nc3ccccc3C)n2)c2ccccc2c1=O here
YES

Hi, sorry to bother you, what did the test record for CCCn1nc(C(=O)NNC(=O)CSCC(=O)Nc2cc(C)on2)c2ccccc2c1=O ?
NO

Look up the recorded call for CCOc1ccc(CNC(=O)c2cc(=O)[nH]c3ccc(S(=O)(=O)N4CCCCC4)cc23)cc1 in this test.
NO

Each compound tested received a call. Report the one for COc1ccc2cc(CNc3ccc(OC)c(OC)c3)c(=O)n(CC(=O)Nc3ccccc3F)c2c1 .
NO

Recorded test call requested for COc1ccc2c(c1)c(=Cc1ccc(N(C)C)cc1)c1cc(-c3ccccc3)[n+](C)n12
NO

Tell me the recorded outcome of this test for COc1cc2ccccc2cc1C(=O)Nc1ccc(NC(=O)c2cccs2)cc1 .
YES

// return assay outcome for O=C(CCCCn1c(=O)c2ccccc2n(CC(=O)Nc2cccc(C(F)(F)F)c2)c1=O)NCc1ccc2c(c1)OCO2
NO

Could you check what this test reported for Cc1c(NS(=O)(=O)c2cc(C(=O)NCCc3ccc(F)cc3)cc(Cl)c2Cl)c(=O)n(-c2ccccc2)n1C ?
NO

I would be grateful if you could indicate the recorded call for Cc1ccccc1Nc1nc(N)nc(COC(=O)CCC(=O)c2ccc(F)cc2)n1 .
NO

Called result for COc1ccccc1C(=O)N1CCNC(=O)C1CC(=O)Nc1ccc(Cl)cc1 (stereo not given)
NO

So what was the verdict on Cc1cccc(C)c1NC(=O)NC1=CCCN1C in this test?
NO

// param item: COC(=O)C1(S(=O)(=O)C2(C(=O)OC)CCCC2)CCCC1 ; yields the recorded call
YES

Can you look up the reported call for Cc1ccc(NC(=O)c2oc3ccc(S(=O)(=O)N4CCCCC4)cc3c2C)cc1Cl for me?
NO

Which outcome did this test record for the compound Cc1ccc(NS(=O)(=O)c2ccc3c(c2)CC(=O)N3)cc1Cl ?
NO

Returns: the outcome recorded for CCCCNc1c(-c2cccc(Sc3ccc(OC)cc3)c2)nc2ccccn12 in this assay.
NO

Record request — test call for Cc1c(NS(=O)(=O)c2cccc(C(=O)Nc3ccc(SC(F)F)cc3)c2)c(=O)n(-c2ccccc2)n1C
YES

What did the test return for NNc1nnc(NN)c2ccccc12 ?
NO

Query: recorded result category for CCn1cc(C(=O)NCCc2ccccc2)c(=O)c2cc(S(=O)(=O)N3CCCCCC3)ccc21 in this test
NO

Tell me the assay call for Cc1c(OC(C)C(=O)N[C@@H](Cc2ccccc2)C(=O)O)ccc2c3c(c(=O)oc12)CCCC3 (stereo not given in full) please.
YES

Assay result, entry CCSc1nnc2c(n1)OC(c1ccc(OCC(=O)O)cc1)Nc1ccccc1-2 (stereo not given) — outcome?
NO

---

TESTED TARGET: D(3) dopamine receptor (Homo sapiens)
METHOD: qHTS of D3 Dopamine Receptor Agonist: qHTS; further: 0% is about no effect
ASSAY SETUP: D3R DiscoveRx beta-arrestin cells, luminescence, 90 min; active compounds read high
Out of some 410,000 compounds screened, about 2,400 (0.59%) were called active. For the sample, actives were picked, then their nearest neighbours and some compounds at random.
EXPERIMENTAL READOUT: max activation (%)
Just the number in %, nothing appended.

Documented max activation of COc1ccccc1CNS(=O)(=O)c1cc(Br)cc2c1N(C(C)=O)C(C)C2 (stereo not given) : -15.9

Looking up CCOc1ccccc1CNC(=O)c1ccc(-n2c(C)cc3c2CCC(C)C3)cc1 (stereo not given) , I found its max activation recorded as -10.9

So, N[C@H]1CN(c2c(F)cc3c(=O)c(C(=O)O)cn(C4C[C@H]4F)c3c2Cl)CC12CC2 (stereo not given in full) ? Its max activation was -3.15

Kindly note the recorded max activation for Cc1ccc(OCCSc2nc(-c3cccs3)nc3cc(=O)[nH]n23)cc1Cl , which is 6.63

max activation for Cc1ccc(CNC(=O)c2cccc3c2C(=O)c2ccc(N4CCC(C)CC4)cc2S3(=O)=O)cc1 is 54.8

For this molecule ( Cc1cccc(CNC(=O)c2cnc3sc(N4CCCCC4)nn3c2=O)c1 ), measured max activation is 6.54

GET /value?item= Cc1cc(C)cc(C(=O)NCC(=O)OCC(=O)N2CCCCC2)c1 &field=max activation returns -0.844

For this molecule ( O=C(NC1CCCCC1)c1ccc2c(c1)N(Cc1ccc(Cl)cc1)C(=O)c1ccccc1S2=O (stereo not given) ), measured max activation is 3.22

Measured max activation, COc1ccc(OC)c(CN2CCN(C(=O)CNC(=O)c3cc(C)cc(C)c3)CC2)c1 : 48.9

For record CCOC(=O)[C@H](CCc1ccccc1)N[C@@H](C)C(=O)N1CC2(C[C@H]1C(=O)O)SCCS2 the listed max activation is -2.59
